Hello, the source for this data is patent US20240228562A1, in case you need it.

Measured EC50 accompanies every entry in the list below.
Target: T1, huCTGF domains 1 and 2 with human Fc tag (Homo sapiens, UniProt P29279)
T1 construct: purchased Evitria
T1 sequence (P29279 with tags, fused parts or gaps): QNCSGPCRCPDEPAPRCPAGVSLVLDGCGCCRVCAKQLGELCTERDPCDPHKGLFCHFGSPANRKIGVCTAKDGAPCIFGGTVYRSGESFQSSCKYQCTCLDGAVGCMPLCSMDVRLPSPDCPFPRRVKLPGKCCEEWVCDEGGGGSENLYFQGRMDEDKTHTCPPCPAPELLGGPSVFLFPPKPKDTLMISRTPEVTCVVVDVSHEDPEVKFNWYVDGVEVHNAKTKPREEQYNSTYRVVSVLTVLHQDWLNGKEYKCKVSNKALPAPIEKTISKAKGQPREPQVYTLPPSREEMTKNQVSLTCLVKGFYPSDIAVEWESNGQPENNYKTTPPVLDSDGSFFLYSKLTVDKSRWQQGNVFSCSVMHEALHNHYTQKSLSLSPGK
Assay: ELISA binding to CTGF fragments, human CTGF domains 1 and 2
Details: coated 1 μg/ml, muteins from 1000 nM, read-out: EC Human CTGF1-2-huFc
Experimental: Binding of muteins to fragments of human and murine CTGF was tested by an ELISA assay. […] The residual supernatants were discarded and 20 μl HRP-labeled anti-Strep-Tag antibody was added at a predetermined optimal concentration in PBS-T/BSA and incubated for 1 h at RT. […] The fluorescence intensity of every well on the plate was read using a fluorescence microplate reader (Tecan). […]
Don't forget the unit after the value.

SEQ ID NO: 7: parent CTGF-binding hNGAL lipocalin mutein (protein, lipocalin mutein) QDSTSDLIPAPPLSKVPLQQNFQDNQFHGKWYVVGLAGNYGLRTDKRPSKMFATIYELKEDKSYDVTSVRFEQERCHYTIRTFVPGSQPGEFTTGSIKSRPGQTSSLVRVVSTNYNQHAMVFFKSVIQNREYFAITLYGRTKELTSELKENFIRFSKSLGLPENHIVFPVPIDQCIDG = 17 nM

# input What measured EC50 goes with SEQ ID NO: 25: parent CTGF-binding hNGAL lipocalin mutein (protein, lipocalin mutein) QDSTSDLIPAPPLSKVPLQQNFQDNQFHGKWYVVGMAGNFRLREDKDPSKMGATIYELKEDKSYNVTQVQFDDKKCLYVIETFVPGSQPGEFTLGAIKSFPGFTSQLVRVVSTNYNQHAMVFFKKVYQNREVFWITLYGRTKELTSELKENFIRFSKSLGLPENHIVFPVPIDQCIDG ?
# output 8.8 nM

# input What measured EC50 goes with SEQ ID NO: 29: parent CTGF-binding hNGAL lipocalin mutein (protein, lipocalin mutein) QDSTSDLIPAPPLSKVPLQQNFQDNQFHGKWYVVGWAGNIKLREDKDPFKMSATIYELKEDKSYNVTEVVFEQKKCHYIIKTFVPGSQPGEFTLGDIKSPPGETSSLVRVVSTNYNQHAMVFFKKVFQNREFFWITLYGRTKELTSELKENFIRFSKSLGLPENHIVFPVPIDQCIDG ?
# output 8.4 nM

# input What measured EC50 goes with SEQ ID NO: 9: parent CTGF-binding hNGAL lipocalin mutein (protein, lipocalin mutein) QDSTSDLIPAPPLSKVPLQQNFQDNQFHGKWYVVGLAGNKILRIDKQPAKMFATIYELKEDKSYDVTSVRFEARSCSYTIKTFVPGSQPGEFTAGNIKSAPGQTSTLVRVVSTNYNQHAMVFFKHVSQNRETFVITLYGRTKELTSELKENFIRFSKSLGLPENHIVFPVPIDQCIDG ?
# output 8 nM
